Attribution: PubChem BioAssay (NCI)

system: SK-MEL-2 melanoma; assay: NCI-60 one-dose screen, 48 h; conditions: 10 µM unless noted
Compounds without any hit were thinned out: in the full panel of roughly 83,000, 20% have a hit. Active and inactive are the calls of the source. The calls were made as follows: active = growth percent below 10; inactive = the rest.
Please state which outcome applies, choosing from True for active, False for inactive

In this assay, the call recorded for O=C(/C=C/c1cccc(O)c1)c1ccccc1O was what?
False

In this assay, the call recorded for CC(C)C[C@@H](NC(=O)[C@@H](Cc1ccccc1)NC(=O)c1cnccn1)B1O[C@H]2[C@H](O)[C@@H](C(=O)NCCCC[C@@H]3NC(=O)[C@@H](Cc4ccccc4)NC(=O)[C@H](CC(=O)O)NC(=O)CNC(=O)[C@H](CCCN=C(N)N)NC3=O)O[C@@H](CN)[C@H]2O1 was what?
True

In this assay, the call recorded for COc1cc2nc(Cl)nc(Nc3cccc(C(=O)/C=C/c4ccc(Cl)cc4)c3)c2cc1OC was what?
False

In this assay, the call recorded for O=C(N/N=C\c1c(O)ccc2ccccc12)C1CC1 was what?
False

In this assay, the call recorded for COc1ccc2c3c(c4ccccc4cc13)C(=O)N(CCN(C)CCN)C2=O was what?
False

In this assay, the call recorded for COc1cc(-c2nc(-c3ccccc3)c(-c3ccccc3)[nH]2)cc(OC)c1O was what?
True

In this assay, the call recorded for NCCn1cc(-c2nc(-c3c[nH]c4ncccc34)cs2)c2ccccc21 was what?
False

In this assay, the call recorded for N#CC1c2ccccc2-c2ccccc2N1C(=O)c1ccccc1 (stereo not drawn) was what?
False

In this assay, the call recorded for CCOC(=O)C1OC1(c1ccccc1)c1ccccc1 (stereo not drawn) was what?
False

In this assay, the call recorded for Cc1cccc2c1NC(=O)[C@@]21[C@H](C(=O)c2ccccc2)[C@]2(C(=O)Nc3ccccc32)[C@H]2CCCN21 was what?
False

In this assay, the call recorded for CN(C)c1ccc(C(=O)c2ccc(N(C)C)c(N)c2)cc1N was what?
False

In this assay, the call recorded for CC(=O)Oc1ccccc1C(=O)/C=C/c1cccc([N+](=O)[O-])c1 was what?
False

In this assay, the call recorded for CC1=NN(c2ccc(S(=O)(=O)O)cc2Cl)C(=O)C1 was what?
False

In this assay, the call recorded for Cc1oc(-c2ccccc2Cl)cc1C(=O)Nc1ccc(S(N)(=O)=O)cc1 was what?
False

In this assay, the call recorded for CN1CCN(CC#CCn2c3c(c4ccccc42)C[C@]2(C)[C@H]4CC[C@@H]5[C@H]6[C@H]7OC(=O)[C@@]6(CCC7(C)C)CC[C@@]5(C)[C@]4(C)CC[C@H]2C3(C)C)CC1 was what?
False

In this assay, the call recorded for COc1ccc(/C=C(\C#N)c2cc3ccccc3n2C(C)=O)cc1 was what?
False

In this assay, the call recorded for NC(N)=N/N=C/c1ccc(-c2ccc(-c3ccc(Cl)cn3)s2)cc1 was what?
False

In this assay, the call recorded for COC(=O)[C@@H]1[C@H]2C[C@H]3c4[nH]c5cc(OC)ccc5c4CCN3C[C@@H]2C[C@H](OC(=O)/C=C/c2ccnc(OC)c2)[C@H]1OC was what?
False
